Biological target: Voltage-gated potassium channel subunit beta-2 (Rattus norvegicus)
Assay: KvBeta positive modulators, primary screen, biochemical, NADPH fluorescence (AID 623);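 note: fluorescence intensity change per second fitted from 20 to 320 s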
Conditions: Recombinant KvBeta, NADPH fluorescence decrease slope, 10 min; at 10 µM; stronger effect = lower value
VALUE KIND: NADPH fluorescence slope
Give a plain numeric answer without units written out.

Example results:
COMPOUND	QUANTITATIVE READOUT
CCCCOc1ccc(C(=O)NCC(=O)NCC(=O)OCC)cc1	4.9e-06
CCCCc1nccn1CCn1ccnc1CCCC	1.9e-05
Cc1ccccc1-n1c(=O)c2ccccc2n2nnnc12	2.5e-05
CCOC(=O)C1CCN(c2c(Nc3ccc4c(c3)OCCO4)c(=O)c2=O)CC1	2.4e-05

Prompt: Query the reported NADPH fluorescence slope for Voltage-gated potassium channel subunit beta-2 (Rattus norvegicus); item: Cc1nc2c(o1)CCc1ccccc1C2N1CCN(C)CC1 (stereo not given)
Completion: -3.4e-05

###

Assay: inhibitors of E-selectin induction by TNFa, primary screen, imaging, HUVEC, immunofluorescence, MLSMR starter and 10KST1 sets (AID 487);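 note: signal is fraction of cell area covered by stained E-selectin grains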
Details: HUVEC TNFalpha-induced E-selectin immunofluorescence imaging, at 2 µM; stronger effect = higher value
# inhibition annotations
Write the answer as a number in %, unit excluded.

MOLECULE	VALUE KIND	QUANTITATIVE READOUT
Cc1nnc(SCC(=O)NCCN2C(=O)CSC2=O)s1	inhibition	-195
CCCCCc1c(C)nc(Nc2nc(C)c3cc(OC)ccc3n2)[nH]c1=O	inhibition	9.5
O=C(CC(c1ccc(F)cc1)c1ccco1)N1CCCC1 (centres undefined)	inhibition	-36.9

Prompt: Find the recorded inhibition belonging to O=C(Nc1nnc(SCc2ccccc2F)s1)c1ccco1 and report it.
Completion: -62.9

###

# fluorescence slope per record follows
Target: Muscarinic acetylcholine receptor M4 (Homo sapiens) (UniProt P08173)
Sequence (P08173 whole entry, looked up): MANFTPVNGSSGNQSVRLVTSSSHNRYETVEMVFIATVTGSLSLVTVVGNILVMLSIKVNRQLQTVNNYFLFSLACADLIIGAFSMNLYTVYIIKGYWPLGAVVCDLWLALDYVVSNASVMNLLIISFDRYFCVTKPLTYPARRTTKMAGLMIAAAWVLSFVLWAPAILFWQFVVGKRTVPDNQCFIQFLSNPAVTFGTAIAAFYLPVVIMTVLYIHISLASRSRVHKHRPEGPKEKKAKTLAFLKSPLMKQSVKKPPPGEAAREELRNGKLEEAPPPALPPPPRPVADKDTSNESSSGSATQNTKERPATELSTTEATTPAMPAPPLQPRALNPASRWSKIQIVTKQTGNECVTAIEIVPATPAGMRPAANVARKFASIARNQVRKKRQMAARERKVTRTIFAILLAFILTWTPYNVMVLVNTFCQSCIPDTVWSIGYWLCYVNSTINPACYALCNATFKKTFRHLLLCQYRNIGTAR
Test: compounds altering M4/GIRK thallium flux, either direction, primary screen, M4 allosteric agonist project, cell-based, HEK293 M4/GIRK, BTC-AM (AID 625);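 note: thallium influx through GIRK channels coupled to M4 in HEK293 cells with BTC-AM dye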
Conditions: at 10 µM, actives lie on both sides
Field format: numeric only.

Known results for compounds:
COMPOUND	fluorescence slope
N#Cc1ccc(-c2ccc(OCC(O)Cn3nnc4ccccc43)cc2)cc1 (stereo not drawn)	0.00426
C(=N\n1cnnc1)/c1cccc(Oc2ccccc2)c1	0.00705
Cc1ccc2cc(CNC(C)C)c(=O)[nH]c2c1	0.00672
C[N+]1(CCNC(=O)/C=N/O)CCCCC1	0.00534
COc1ccc(-n2ncc3c(NCCCn4ccnc4)ncnc32)cc1	0.00474

Prompt: Which fluorescence slope reading was recorded for the compound COc1ccc(OC)c(NS(=O)(=O)c2ccc(N3CCCC3=O)cc2)c1 ?
Completion: 0.00599

Prompt: Again, but for Cc1cccc(N2CC(=O)N(c3cccc(C)c3)CC2=O)c1
Completion: 0.00702

Prompt: Try CCC(=O)N(Cc1cccs1)C1CCOC(C)(C)C1 (stereo not drawn) next.
Completion: 0.00514

###

Experiment: inhibitors of mutant huntingtin aggregation, primary screen, imaging, exon1htt(103Q)mCFP cells, high-content imaging (AID 483);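 note: compound exposure lasted 3 days before fixation; percent of the per-plate median nuclei count of sample wells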
Settings: exon1htt(103Q)mCFP cell line, aggregate imaging, at 2 µM; measured here: cell count, toxicity
Answer -1 if nuclei count is under 80%, and 1 if it is 80% or more.

Examples from the recorded data:
MOLECULE	DISCRETE LABEL
O=C(c1ccco1)N1CCN(c2cccc(Cl)c2)CC1	1
COc1ccc2cc(C#N)c(SCC(=O)N3CCCC3)nc2c1	1
COc1ccc(-c2nn3c(-c4cccc(C)c4)nnc3s2)cc1OC	1

Prompt: Is it the case that O=C(Nc1nc(-c2ccc(S(=O)(=O)N3CCCC3)cc2)cs1)C1COc2ccccc2O1 (configuration not stated) has nuclei count reaching or exceeding 80%?
Completion: 1

Prompt: Follow-up item: COc1ccc(C(C)N2CC34C=CC(O3)C(C(=O)OCC(C)C)C4C2=O)cc1 (configuration not stated)
Completion: -1

Prompt: Then Cc1ccc2cc(CN(Cc3ccc4c(c3)OCO4)Cc3nnnn3Cc3ccco3)c(=O)[nH]c2c1C ?
Completion: -1

Prompt: Cool, now CCN1C(=O)CC(N2CCC(Nc3ccc(F)cc3)CC2)C1=O (configuration not stated)
Completion: -1
